# Target entity: Toxin B (Clostridioides difficile, UniProt P18177)
# Sequence (P18177 whole entry, the tested form may be a part): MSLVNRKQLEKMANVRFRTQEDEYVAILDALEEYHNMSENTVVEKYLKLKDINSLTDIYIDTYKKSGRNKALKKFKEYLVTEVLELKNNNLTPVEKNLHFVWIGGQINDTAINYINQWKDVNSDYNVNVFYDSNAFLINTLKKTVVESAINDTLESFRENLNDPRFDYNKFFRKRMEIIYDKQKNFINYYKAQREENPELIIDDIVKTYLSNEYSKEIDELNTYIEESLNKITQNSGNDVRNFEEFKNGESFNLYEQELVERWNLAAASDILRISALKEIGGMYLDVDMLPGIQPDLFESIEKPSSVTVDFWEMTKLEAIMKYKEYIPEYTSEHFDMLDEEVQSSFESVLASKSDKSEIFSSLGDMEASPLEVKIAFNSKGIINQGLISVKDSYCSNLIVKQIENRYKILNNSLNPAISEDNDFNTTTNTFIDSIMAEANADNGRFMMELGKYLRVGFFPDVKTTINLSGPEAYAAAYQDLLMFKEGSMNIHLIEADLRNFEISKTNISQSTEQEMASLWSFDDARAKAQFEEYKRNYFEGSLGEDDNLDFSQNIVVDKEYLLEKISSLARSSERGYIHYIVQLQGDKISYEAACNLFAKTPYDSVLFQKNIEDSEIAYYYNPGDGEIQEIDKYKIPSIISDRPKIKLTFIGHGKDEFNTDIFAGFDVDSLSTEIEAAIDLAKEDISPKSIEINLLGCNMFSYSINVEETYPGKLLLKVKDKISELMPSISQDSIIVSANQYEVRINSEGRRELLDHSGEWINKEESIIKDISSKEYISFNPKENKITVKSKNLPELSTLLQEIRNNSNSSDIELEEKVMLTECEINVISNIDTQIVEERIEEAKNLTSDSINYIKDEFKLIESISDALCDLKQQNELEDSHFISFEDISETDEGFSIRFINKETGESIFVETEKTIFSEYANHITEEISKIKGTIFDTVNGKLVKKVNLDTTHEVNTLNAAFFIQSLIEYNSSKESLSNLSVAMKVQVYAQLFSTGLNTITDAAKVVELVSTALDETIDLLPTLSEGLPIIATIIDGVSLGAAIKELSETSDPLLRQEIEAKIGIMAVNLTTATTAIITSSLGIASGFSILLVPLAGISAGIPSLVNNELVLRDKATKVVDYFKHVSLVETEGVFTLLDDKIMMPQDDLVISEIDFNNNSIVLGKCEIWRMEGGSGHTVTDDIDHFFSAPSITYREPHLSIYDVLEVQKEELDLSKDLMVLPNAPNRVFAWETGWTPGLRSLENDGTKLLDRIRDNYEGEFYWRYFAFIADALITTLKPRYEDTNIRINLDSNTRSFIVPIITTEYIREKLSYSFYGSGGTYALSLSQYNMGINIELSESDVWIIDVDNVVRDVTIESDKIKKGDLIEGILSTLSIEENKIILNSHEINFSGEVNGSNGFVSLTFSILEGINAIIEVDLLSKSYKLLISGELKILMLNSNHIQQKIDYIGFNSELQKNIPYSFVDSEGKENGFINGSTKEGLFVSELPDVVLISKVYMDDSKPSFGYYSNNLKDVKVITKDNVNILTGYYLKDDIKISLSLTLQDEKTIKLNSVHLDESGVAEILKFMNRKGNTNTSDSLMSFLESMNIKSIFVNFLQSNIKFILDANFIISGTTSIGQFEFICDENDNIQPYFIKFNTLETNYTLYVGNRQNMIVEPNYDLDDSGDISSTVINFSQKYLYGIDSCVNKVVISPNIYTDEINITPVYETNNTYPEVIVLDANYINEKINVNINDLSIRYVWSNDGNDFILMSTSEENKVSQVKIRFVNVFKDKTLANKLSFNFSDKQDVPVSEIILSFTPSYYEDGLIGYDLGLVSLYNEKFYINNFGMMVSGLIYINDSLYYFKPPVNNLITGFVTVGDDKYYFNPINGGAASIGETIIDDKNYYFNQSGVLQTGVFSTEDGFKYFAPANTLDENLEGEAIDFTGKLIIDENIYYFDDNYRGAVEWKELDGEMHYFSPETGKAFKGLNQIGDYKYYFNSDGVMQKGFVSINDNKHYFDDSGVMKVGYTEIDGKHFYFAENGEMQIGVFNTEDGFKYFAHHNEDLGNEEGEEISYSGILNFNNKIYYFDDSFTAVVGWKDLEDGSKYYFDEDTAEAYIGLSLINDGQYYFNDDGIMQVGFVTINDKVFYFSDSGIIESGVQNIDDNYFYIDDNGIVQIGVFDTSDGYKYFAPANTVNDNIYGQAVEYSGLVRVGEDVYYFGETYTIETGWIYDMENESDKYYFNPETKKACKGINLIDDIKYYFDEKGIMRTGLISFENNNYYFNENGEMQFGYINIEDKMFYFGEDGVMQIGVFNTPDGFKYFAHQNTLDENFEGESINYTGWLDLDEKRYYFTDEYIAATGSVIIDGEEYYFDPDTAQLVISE
# Assay comment: Binding affinity to His6 tagged Clostridioides difficile Toxin B truncated cysteine protease domain (543 to 799 residues) extracted from Escherichia coli BL21 (DE3) assessed as dissociation constant by ITC method
Property measured: Kd (nM)
State the answer as a number, implicitly in nM.

O=S(=O)(O)O[C@@H]1[C@@H](OS(=O)(=O)O)[C@H](OS(=O)(=O)O)[C@H](OP(O)(O)=S)[C@H](OS(=O)(=O)O)[C@H]1OS(=O)(=O)O: 7140

Qu. Look up Kd for this molecule: `O=S(=O)(O)O[C@H]1[C@@H](OS(=O)(=O)O)[C@H](OS(=O)(=O)O)[C@@H](OP(O)(O)=S)[C@H](OS(=O)(=O)O)[C@H]1OS(=O)(=O)O`
Ans. 2190

Qu. Look up Kd for this molecule: `OP(O)(=S)O[C@H]1[C@H](OP(O)(O)=S)[C@@H](OP(O)(O)=S)[C@H](OP(O)(O)=S)[C@@H](OP(O)(O)=S)[C@H]1OP(O)(O)=S`
Ans. 184

Numbers sourced from ChEMBL document CHEMBL5608240.
